These data points were gathered from the supplement of paper PMC5998384.

# Tested on: HeLa Kyoto
# Protocol: solubility change mitosis vs G1/S (difference of NP-40 vs SDS log2 ratios) (log2 ratio difference); higher = more soluble in mitosis
Property Measured: solubility change mitosis (log2)

- MAGPESDAQYQFTGIKKYFNSYTLTGRMNCVLATYGSIALIVLYFKLRSKKTPAVKAT [USMG5]: -0.0955
- MSDVEENNFEGRESRSQSKSPTGTPARVKSESRSGSRSPSRVSKHSESHSRSRSKSRSRSRRHSHRRYTRSRSHSHSHRRRSRSRSYTPEYRRRRSRSHSPMSNRRRHTGSRANPDPNTCLGVFGLSLYTTERDLREVFSRYGPLSGVNVVYDQRTGRSRGFAFVYFERIDDSKEAMERANGMELDGRRIRVDYSITKRAHTPTPGIYMGRPTHSGGGGGGGGGGGGGGGGRRRDSYYDRGYDRGYDRYEDYDYRYRRRSPSPYYSRYRSRSRSRSYSPRRY [TRA2A]: 0.522
- MVRTKADSVPGTYRKVVAARAPRKVLGSSTSATNSTSVSSRKAENKYAGGNPVCVRPTPKWQKGIGEFFRLSPKDSEKENQIPEEAGSSGLGKAKRKACPLQPDHTNDEKE [KIAA0101]: 0.256
- MLGMIKNSLFGSVETWPWQVLSKGDKEEVAYEERACEGGKFATVEVTDKPVDEALREAMPKVAKYAGGTNDKGIGMGMTVPISFAVFPNEDGSLQKKLKVWFRIPNQFQSDPPAPSDKSVKIEEREGITVYSMQFGGYAKEADYVAQATRLRAALEGTATYRGDIYFCTGYDPPMKPYGRRNEIWLLKT [HEBP1]: 0.0399

====

# Tested on: HeLa Kyoto
# Protocol: melting temperature (median over replicates), in situ; higher = more thermally stable
# Assay Setup: cell cycle stage: mitosis
Property Measured: melting temperature (°C)

• MAARGRRAEPQGREAPGPAGGGGGGSRWAESGSGTSPESGDEEVSGAGSSPVSGGVNLFANDGSFLELFKRKMEEEQRQRQEEPPPGPQRPDQSAAAAGPGDPKRKGGPGSTLSFVGKRRGGNKLALKTGIVAKKQKTEDEVLTSKGDAWAKYMAEVKKYKAHQCGDDDKTRPLVK [C19ORF43] = 51.3
• MAAAAPGNGRASAPRLLLLFLVPLLWAPAAVRAGPDEDLSHRNKEPPAPAQQLQPQPVAVQGPEPARVEKIFTPAAPVHTNKEDPATQTNLGFIHAFVAAISVIIVSELGDKTFFIAAIMAMRYNRLTVLAGAMLALGLMTCLSVLFGYATTVIPRVYTYYVSTVLFAIFGIRMLREGLKMSPDEGQEELEEVQAELKKKDEEFQRTKLLNGPGDVETGTSITVPQKKWLHFISPIFVQALTLTFLAEWGDRSQLTTIVLAAREDPYGVAVGGTVGHCLCTGLAVIGGRMIAQKISVRTVTIIGGIVFLAFAFSALFISPDSGF [TMEM165] = 56.9
• MAEGERQPPPDSSEEAPPATQNFIIPKKEIHTVPDMGKWKRSQAYADYIGFILTLNEGVKGKKLTFEYRVSEMWNEVHEEKEQAAKQSVSCDECIPLPRAGHCAPSEAIEKLVALLNTLDRWIDETPPVDQPSRFGNKAYRTWYAKLDEEAENLVATVVPTHLAAAVPEVAVYLKESVGNSTRIDYGTGHEAAFAAFLCCLCKIGVLRVDDQIAIVFKVFNRYLEVMRKLQKTYRMEPAGSQGVWGLDDFQFLPFIWGSSQLIDHPYLEPRHFVDEKAVNENHKDYMFLECILFITEMKTGPFAEHSNQLWNISAVPSWSKVNQGLIRMYKAECLEKFPVIQHFKFGSLLPIHPVTSG [PPP2R4] = 53.8
